The following compounds are shown together with reported pIC50 values.
Target: Human recombinant full length HDAC6 (Homo sapiens (Human), UniProt Q9UBN7)
Sequence (Q9UBN7 whole entry): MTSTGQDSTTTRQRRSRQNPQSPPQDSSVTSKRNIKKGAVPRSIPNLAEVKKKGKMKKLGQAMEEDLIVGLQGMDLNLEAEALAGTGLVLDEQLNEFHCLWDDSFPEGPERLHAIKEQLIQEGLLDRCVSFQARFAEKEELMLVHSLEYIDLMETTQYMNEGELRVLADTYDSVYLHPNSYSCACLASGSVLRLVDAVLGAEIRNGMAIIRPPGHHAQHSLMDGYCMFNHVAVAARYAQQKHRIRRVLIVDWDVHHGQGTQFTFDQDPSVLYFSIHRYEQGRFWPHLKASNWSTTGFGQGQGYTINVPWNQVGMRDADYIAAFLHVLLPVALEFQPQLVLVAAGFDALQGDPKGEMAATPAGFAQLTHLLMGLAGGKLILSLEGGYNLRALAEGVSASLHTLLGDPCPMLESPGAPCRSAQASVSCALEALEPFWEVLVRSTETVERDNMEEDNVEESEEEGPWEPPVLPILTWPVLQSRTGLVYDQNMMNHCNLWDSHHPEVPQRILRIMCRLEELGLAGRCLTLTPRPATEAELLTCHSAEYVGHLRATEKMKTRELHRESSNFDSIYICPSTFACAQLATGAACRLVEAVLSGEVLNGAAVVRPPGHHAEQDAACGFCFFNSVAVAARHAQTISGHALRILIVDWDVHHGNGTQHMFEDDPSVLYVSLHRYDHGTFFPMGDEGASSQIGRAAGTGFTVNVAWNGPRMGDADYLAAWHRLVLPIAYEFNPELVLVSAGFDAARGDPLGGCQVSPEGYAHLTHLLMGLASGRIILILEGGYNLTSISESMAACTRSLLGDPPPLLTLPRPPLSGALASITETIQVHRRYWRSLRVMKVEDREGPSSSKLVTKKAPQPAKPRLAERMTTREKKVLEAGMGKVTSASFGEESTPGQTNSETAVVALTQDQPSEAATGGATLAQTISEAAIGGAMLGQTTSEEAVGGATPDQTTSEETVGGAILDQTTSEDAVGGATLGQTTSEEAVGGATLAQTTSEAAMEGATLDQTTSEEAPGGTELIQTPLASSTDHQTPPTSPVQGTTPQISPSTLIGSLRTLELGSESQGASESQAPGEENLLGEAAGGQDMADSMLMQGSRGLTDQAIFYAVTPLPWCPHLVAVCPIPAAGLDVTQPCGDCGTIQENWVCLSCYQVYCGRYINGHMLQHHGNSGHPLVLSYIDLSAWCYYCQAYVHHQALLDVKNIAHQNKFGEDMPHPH
Assay: HDAC6 assay (Test 3), acetyl-Gly-Ala-Lys(acetyl)-AMC substrate
Conditions: 5 μM substrate, 2 hours at room temperature
pIC50: −log10 of the molar value.

# structure as smiles, pIC50
data = [
    ("C[C@H](CN(C)C)NC(=O)c1cnc(-c2noc(C(F)(F)F)n2)nc1", "< 5.00"),
    ("Cc1ccc(CNc2ncc(-c3noc(C(F)(F)F)n3)cc2Cl)cn1", 5.81),
    ("CN(CCc1ccncc1)c1ncc(-c2noc(C(F)(F)F)n2)cn1", "< 5.00"),
]

====

Biological target: Human recombinant full length HDAC6 (Homo sapiens (Human))
Experiment: HDAC6 assay (Test 3), acetyl-Gly-Ala-Lys(acetyl)-AMC substrate
Conditions: 5 μM substrate, 2 hours at room temperature
Method: Human recombinant HDAC4 was expressed in full length form (aa 2-1084) in Sf9 insect cells (obtained from ATCC) using baculovirus generated with Bac-to-Bac system (Invitrogen). Test compounds were serially diluted to reach final test concentrations from 0.000128 μM to 10 μM. […] The plate was placed in a fluorescence microplate reader, and read at an excitation wavelength of 360 nm and an emission wavelength of 450 nm with a 10 nm bandpath. […]
In this section we review reported log10(IC50) values for a set of compounds.
observable: log10(IC50) (log10 of the value in nM)

# compound, readout value
measured = [
    ("FC(F)(F)c1nc(-c2ccc(NCc3cccnc3)nc2)no1", 3.26),
    ("FC(F)(F)c1nc(-c2cnc(NCc3ccccc3)nc2)no1", 2.51),
    ("FC(F)(F)c1nc(-c2ncc(NCc3ccncc3)cn2)no1", 3.04),
    ("FC(F)(F)c1nc(-c2cnc(NCc3ccncc3)nc2)no1", 3.00),
    ("CC[C@@H](Nc1ncc(-c2noc(C(F)(F)F)n2)cn1)c1ccccc1", 2.15),
    ("FC(F)(F)c1nc(-c2cnc(NCc3cccnc3)nc2)no1", 3.04),
    ("CN(Cc1ccnc(Cl)c1)c1ncc(-c2noc(C(F)(F)F)n2)cn1", 3.32),
    ("C[C@@H](Nc1ncc(-c2noc(C(F)(F)F)n2)cc1Cl)c1ccccc1", 3.65),
    ("CC(=O)Nc1cnc(-c2noc(C(F)(F)F)n2)cn1", 3.23),
    ("FC(F)(F)c1nc(-c2cnc(NCc3ccncc3)c(Cl)c2)no1", 3.26),
    ("FC(F)(F)c1nc(-c2ccc(NCc3ccccc3)nc2)no1", 3.48),
    ("CC(Nc1ncc(-c2noc(C(F)(F)F)n2)cn1)c1ccncc1 (stereo not shown)", 2.75),
]

====

Molecular target: Human recombinant full length HDAC6 (Homo sapiens (Human), UniProt Q9UBN7)
Assay: HDAC6 assay (Test 3), acetyl-Gly-Ala-Lys(acetyl)-AMC substrate
Conditions: 5 μM substrate, 2 hours at room temperature
# key: entry, value: log10 IC50
observable: log10 IC50 (log10 of the value in nM)

# compound, log10 IC50
records = [
    ("CCC(Nc1ncc(-c2noc(C(F)(F)F)n2)cn1)c1ccncc1 (stereo not shown)", 2.32),
    ("C[C@@H](Nc1ccc(-c2noc(C(F)(F)F)n2)cn1)c1ccncc1", 3.01),
    ("CC(Nc1ncc(-c2noc(C(F)(F)F)n2)cc1Cl)c1ccncc1 (stereo not shown)", 3.04),
    ("FC(F)(F)c1nc(-c2cnc(NCc3ccccn3)c(Cl)c2)no1", 3.28),
    ("CN(Cc1ccncc1)c1ncc(-c2noc(C(F)(F)F)n2)cn1", 3.83),
    ("FC(F)(F)c1nc(-c2cnc(NCc3cccnc3)c(Cl)c2)no1", 3.30),
    ("CC(Nc1ccc(-c2noc(C(F)(F)F)n2)cn1)c1ccccc1 (stereo not shown)", 2.81),
    ("Cc1cccc(CNc2ncc(-c3noc(C(F)(F)F)n3)cn2)n1", 2.74),
    ("Cc1cc(CN(C)c2ncc(-c3noc(C(F)(F)F)n3)cn2)ccn1", 3.54),
    ("N#Cc1ccc(C(=O)Nc2cnc(-c3noc(C(F)(F)F)n3)cn2)cc1", 3.41),
    ("C[C@H](Nc1cnc(-c2noc(C(F)(F)F)n2)nc1)c1ccccc1", 3.28),
    ("C[C@@H](Nc1ncc(-c2noc(C(F)(F)F)n2)cn1)c1ccccc1", 2.53),
    ("C[C@@H](Nc1ccc(-c2noc(C(F)(F)F)n2)nn1)c1ccncc1", 2.79),
    ("Cc1ccc(CNc2ncc(-c3noc(C(F)(F)F)n3)cn2)cn1", 2.40),
    ("C[C@@H](Nc1cnc(-c2noc(C(F)(F)F)n2)nc1)c1ccccc1", 3.11),
]

====

Target: Human recombinant full length HDAC1 (Homo sapiens (Human))
Sequence (Q13547 whole entry): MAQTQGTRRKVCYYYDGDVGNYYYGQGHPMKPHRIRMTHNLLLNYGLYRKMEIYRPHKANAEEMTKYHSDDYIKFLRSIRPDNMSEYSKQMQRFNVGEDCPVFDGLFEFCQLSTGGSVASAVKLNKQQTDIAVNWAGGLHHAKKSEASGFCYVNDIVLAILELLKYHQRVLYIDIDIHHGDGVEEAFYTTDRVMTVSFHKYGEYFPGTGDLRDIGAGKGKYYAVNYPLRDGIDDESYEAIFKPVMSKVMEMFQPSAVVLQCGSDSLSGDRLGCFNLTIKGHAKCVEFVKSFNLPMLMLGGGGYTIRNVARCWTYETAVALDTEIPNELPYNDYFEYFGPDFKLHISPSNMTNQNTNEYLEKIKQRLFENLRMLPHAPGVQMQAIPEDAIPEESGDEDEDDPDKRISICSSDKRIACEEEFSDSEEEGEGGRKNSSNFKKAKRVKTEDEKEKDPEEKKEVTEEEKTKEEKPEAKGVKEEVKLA
Assay: HDAC1 assay (Test 2), acetyl-Gly-Ala-Lys(acetyl)-AMC substrate
Conditions: 5 μM substrate, 2 hours at room temperature
A collection of compounds and their measured IC50

# compound, IC50
data = [
    ("FC(F)(F)c1nc(-c2cnc(NCc3ccccn3)c(Cl)c2)no1", "2.5 µM"),
    ("FC(F)(F)c1nc(-c2ccc(NCc3cccnc3)nc2)no1", "6.1 µM"),
    ("CC(Nc1ncc(-c2noc(C(F)(F)F)n2)cc1Cl)c1ccncc1 (stereo not drawn)", "0.86 µM"),
    ("C[C@H](CN(C)C)NC(=O)c1ccc(-c2noc(C(F)(F)F)n2)cn1", "> 10 µM"),
    ("C[C@H](CN(C)Cc1ccccc1)NC(=O)c1cnc(-c2noc(C(F)(F)F)n2)nc1", "> 10 µM"),
    ("Cc1cc(CN(C)c2ncc(-c3noc(C(F)(F)F)n3)cn2)ccn1", "2.2 µM"),
    ("C[C@H](CN(C)Cc1ccccc1)NC(=O)c1ccc(-c2noc(C(F)(F)F)n2)nc1", "> 10 µM"),
    ("CCN(CC)C[C@@H](C)NC(=O)c1ccc(-c2noc(C(F)(F)F)n2)nc1", "> 10 µM"),
    ("FC(F)(F)c1nc(-c2cnc(NCc3ccccc3)c(Cl)c2)no1", "> 10 µM"),
]

====

Molecular target: Human recombinant HDAC4 (Homo sapiens (Human))
Sequence (P56524 2-1084): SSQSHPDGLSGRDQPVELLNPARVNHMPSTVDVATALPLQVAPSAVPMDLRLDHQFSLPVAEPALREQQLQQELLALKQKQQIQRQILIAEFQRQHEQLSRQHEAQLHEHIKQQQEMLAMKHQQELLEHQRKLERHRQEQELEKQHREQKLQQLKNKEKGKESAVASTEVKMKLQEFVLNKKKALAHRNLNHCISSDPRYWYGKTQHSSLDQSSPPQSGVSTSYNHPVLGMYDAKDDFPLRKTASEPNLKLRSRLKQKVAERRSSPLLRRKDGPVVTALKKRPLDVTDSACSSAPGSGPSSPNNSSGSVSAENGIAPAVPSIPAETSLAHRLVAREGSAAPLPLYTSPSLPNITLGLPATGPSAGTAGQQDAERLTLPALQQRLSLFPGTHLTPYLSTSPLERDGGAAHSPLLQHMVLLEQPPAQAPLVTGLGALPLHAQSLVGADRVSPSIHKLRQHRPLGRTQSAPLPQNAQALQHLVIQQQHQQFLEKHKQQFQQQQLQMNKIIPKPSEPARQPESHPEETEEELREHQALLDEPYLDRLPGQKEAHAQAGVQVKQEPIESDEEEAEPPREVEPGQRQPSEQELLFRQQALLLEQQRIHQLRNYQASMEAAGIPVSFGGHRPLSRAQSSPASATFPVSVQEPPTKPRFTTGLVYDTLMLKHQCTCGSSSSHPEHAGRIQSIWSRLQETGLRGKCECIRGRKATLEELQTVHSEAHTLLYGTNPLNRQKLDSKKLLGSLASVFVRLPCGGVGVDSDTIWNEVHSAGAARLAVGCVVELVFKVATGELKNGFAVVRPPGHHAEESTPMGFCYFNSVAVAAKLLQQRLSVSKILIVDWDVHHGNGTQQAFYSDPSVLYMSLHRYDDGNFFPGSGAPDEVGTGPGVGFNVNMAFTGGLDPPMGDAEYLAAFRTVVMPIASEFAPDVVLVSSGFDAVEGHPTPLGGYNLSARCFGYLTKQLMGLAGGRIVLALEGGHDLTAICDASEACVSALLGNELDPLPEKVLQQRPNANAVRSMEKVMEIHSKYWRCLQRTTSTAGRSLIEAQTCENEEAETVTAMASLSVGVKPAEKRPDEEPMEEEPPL
Experiment: HDAC4 assay (Test 1), fluorescence, acetyl-Gly-Ala-Lys(ε-trifluoroacetyl)-AMC substrate
Assay type: biochemical
Conditions: 5 μM substrate, 2 hours at room temperature
observable: IC50 (nM)

# compound, assay system, readout value
data = [
    ("Cc1ccc(CNc2ncc(-c3noc(C(F)(F)F)n3)cn2)cn1", "Human recombinant HDAC4 (Homo sapiens (Human))", 25),
    ("CN(Cc1ccncc1)c1ncc(-c2noc(C(F)(F)F)n2)cn1", "Human recombinant HDAC4 (Homo sapiens (Human))", 39),
    ("Cc1cccc(CNc2ncc(-c3noc(C(F)(F)F)n3)cn2)n1", "Human recombinant HDAC4 (Homo sapiens (Human))", 240),
    ("C[C@H](CN(C)C)NC(=O)c1cnc(-c2noc(C(F)(F)F)n2)nc1", "Human recombinant HDAC4 (Homo sapiens (Human))", 420),
    ("C[C@@H](Nc1ccc(-c2noc(C(F)(F)F)n2)nn1)c1ccncc1", "Human recombinant HDAC4 (Homo sapiens (Human))", 65),
    ("CCN(CC)C[C@@H](C)NC(=O)c1ccc(-c2noc(C(F)(F)F)n2)nc1", "Human recombinant HDAC4 (Homo sapiens (Human))", 28),
    ("FC(F)(F)c1nc(-c2cnc(NCc3cccnc3)c(Cl)c2)no1", "Human recombinant HDAC4 (Homo sapiens (Human))", 19),
    ("CC[C@@H](Nc1ncc(-c2noc(C(F)(F)F)n2)cn1)c1ccccc1", "Human recombinant HDAC4 (Homo sapiens (Human))", 22),
    ("CC(CN(C)C)NC(=O)c1ccc(-c2noc(C(F)(F)F)n2)nc1 (stereo not shown)", "Human recombinant HDAC4 (Homo sapiens (Human))", 350),
    ("CC(=O)Nc1cnc(-c2noc(C(F)(F)F)n2)cn1", "Human recombinant HDAC4 (Homo sapiens (Human))", 460),
    ("CC(Nc1ccc(-c2noc(C(F)(F)F)n2)cn1)c1ccccc1 (stereo not shown)", "Human recombinant HDAC4 (Homo sapiens (Human))", 27),
    ("C[C@@H](Nc1ncc(-c2noc(C(F)(F)F)n2)cn1)c1ccccc1", "Human recombinant HDAC4 (Homo sapiens (Human))", 49),
    ("CN(CCc1ccncc1)c1ncc(-c2noc(C(F)(F)F)n2)cn1", "Human recombinant HDAC4 (Homo sapiens (Human))", 110),
    ("C[C@@H](CO)NC(=O)c1ccc(-c2noc(C(F)(F)F)n2)nc1", "Human recombinant HDAC4 (Homo sapiens (Human))", 4300),
    ("C[C@H](CN(C)C)NC(=O)c1ccc(-c2noc(C(F)(F)F)n2)nc1", "Human recombinant HDAC4 (Homo sapiens (Human))", 250),
    ("N#Cc1ccc(C(=O)Nc2cnc(-c3noc(C(F)(F)F)n3)cn2)cc1", "Human recombinant HDAC4 (Homo sapiens (Human))", 1400),
    ("FC(F)(F)c1nc(-c2ccc(NCc3ccncc3)nc2)no1", "Human recombinant HDAC4 (Homo sapiens (Human))", 41),
    ("CC(Nc1ncc(-c2noc(C(F)(F)F)n2)cn1)c1ccccc1 (stereo not shown)", "Human recombinant HDAC4 (Homo sapiens (Human))", 120),
    ("Cc1ccc(CNc2ccc(-c3noc(C(F)(F)F)n3)cn2)cn1", "Human recombinant HDAC4 (Homo sapiens (Human))", 63),
]

All values here come from patent US9670193B2.
